- system_name: T1, COVID S1 RBM Fc fusion (Antigen 2) (SARS-CoV-2, UniProt P0DTC2 437-508)
- T1 construct: domain: RBM
- procedure_summary: phage ELISA
# specificity ELISA, percent binding relative to Acro S1 per entry
Numbers only; they are read as %.

Answered cases to consult:
Input line: Supply specificity ELISA, percent binding relative to Acro S1 value. Item: SARS-CoV-2 variant 1-30 (antibody, V domains shown) VH: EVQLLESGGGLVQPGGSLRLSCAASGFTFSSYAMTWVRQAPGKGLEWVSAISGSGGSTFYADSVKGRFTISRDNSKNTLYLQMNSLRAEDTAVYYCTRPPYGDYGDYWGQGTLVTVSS VL: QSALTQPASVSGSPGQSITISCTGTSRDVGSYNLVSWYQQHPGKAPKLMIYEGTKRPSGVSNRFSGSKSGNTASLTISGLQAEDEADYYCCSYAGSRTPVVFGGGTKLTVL
Output line: 8.5

Input line: Give the reported specificity ELISA, percent binding relative to Acro S1 for this binder. SARS-CoV-2 variant 1-49 (antibody, V domains shown) VH: EVQLLESGGGLVQPGGSLRLSCAASGFTFSSYAMYWVRQAPGKGLEWVSAISGSAGSTYYADSVKGRFTISRDNSKNTLYLQMNSLRAEDTAVYYCARDTNDFWGQGTLVTVSS VL: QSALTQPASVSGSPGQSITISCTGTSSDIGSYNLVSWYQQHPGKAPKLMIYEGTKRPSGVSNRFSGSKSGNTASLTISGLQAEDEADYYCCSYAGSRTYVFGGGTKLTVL
Output line: 78.8

Input line: For the binder SARS-CoV-2 variant 1-7 (antibody, V domains shown) VH: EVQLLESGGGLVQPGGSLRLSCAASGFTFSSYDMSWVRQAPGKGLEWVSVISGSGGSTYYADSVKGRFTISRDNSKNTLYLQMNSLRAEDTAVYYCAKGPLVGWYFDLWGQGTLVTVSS VL: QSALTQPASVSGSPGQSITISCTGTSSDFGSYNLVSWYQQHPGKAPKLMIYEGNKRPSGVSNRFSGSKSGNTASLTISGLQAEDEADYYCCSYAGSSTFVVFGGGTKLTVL , report specificity ELISA, percent binding relative to Acro S1.
Output line: 23

New cases:
Input line: Quickly give me recorded specificity ELISA, percent binding relative to Acro S1 for SARS-CoV-2 variant 1-9 (antibody, V domains shown) VH: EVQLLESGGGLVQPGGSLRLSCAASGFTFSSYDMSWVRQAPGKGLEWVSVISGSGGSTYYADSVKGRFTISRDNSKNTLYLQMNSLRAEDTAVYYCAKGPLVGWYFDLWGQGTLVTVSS VL: QSALTQPASVSGSPGQSITISCTGTSSDVGDYNLVSWYQQHPGKAPKLMIYEGSNRPSGVSNRFSGSKSGNTASLTISGLQAEDEADYYCCSYAGSSSFVVFGGGTKLTVL
Output line: 9.3

Input line: Tell me its specificity ELISA, percent binding relative to Acro S1 given SARS-CoV-2 variant 1-43 (antibody, V domains shown) VH: EVQLLESGGGLVQPGGSLRLSCAASGFTFSSQAMSWVRQAPGKGLEWVTAISGSGGGTYYADSVKGRFTISRDNSKNTLYLQMNSLRAEDTAVYYCAKDTIFGEFYPWGQGTLVTVSS VL: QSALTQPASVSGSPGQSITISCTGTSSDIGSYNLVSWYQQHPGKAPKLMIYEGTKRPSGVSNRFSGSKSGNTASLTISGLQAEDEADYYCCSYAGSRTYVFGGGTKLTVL as the entry.
Output line: 14.5

Source: patent US20210395344A1
